assay: Volume of distribution at steady state in human at 1 g administered as 3 hrs of infusion; type: ADME, organism-based; conditions: in vivo, iv, read-out: Vdss
parameter: Vd (L)
All answers are understood in L, so give the number only.

Recall and state the measured Vd for O=C(O)C[C@@H]1CC[C@H](NC(=O)Cc2cccs2)B(O)O1 [VABORBACTAM] .
21

---

test system: Escherichia coli; experiment: microbe, parasite or virus in culture; conditions: EC1007
Description: Antibacterial activity against Escherichia coli EC1007 expressing KPC3 by broth microdilution method
parameter: MIC
Report field: quantity (unit follows the number).

C[C@@H](O)[C@H]1C(=O)N2C(C(=O)[O-])=C(SC3Cn4cnc[n+]4C3)[C@H](C)[C@H]12 (some centres undefined) [BIAPENEM] = 8 µg/mL
C[C@@H](O)[C@H]1C(=O)N2C(C(=O)O)=C(S[C@@H]3CN[C@H](C(=O)Nc4cccc(C(=O)O)c4)C3)[C@H](C)[C@H]12 = 8 µg/mL
C[C@@H](O)[C@H]1C(=O)N2C(C(=O)O)=C(S[C@@H]3CN[C@H](C(=O)N(C)C)C3)[C@H](C)[C@H]12 [MEROPENEM] = 4 µg/mL

Okay, now this compound:
Name the recorded MIC of the item C[C@@H](O)[C@H]1C(=O)N2C(C(=O)O)=C(SCCNC=N)C[C@H]12 [IMIPENEM ANHYDROUS] in your answer.
8 µg/mL

---

test: AUC (0 to infinity) in rat at 300 mg/kg, iv administered as 0.5 hrs infusion by HPLC-MS method; type: ADME, organism-based; design: dose 300 mg/kg, time infinity, route intravenous; conditions: in vivo
parameter: AUC(0-inf) (µg·h/mL)
Answer format: numeric, µg·h/mL implied, no suffix.

# return recorded AUC(0-inf) for entry O=C(O)C[C@@H]1CC[C@H](NC(=O)Cc2cccs2)B(O)O1 [VABORBACTAM]
239

---

target: Plasminogen (Homo sapiens, UniProt P00747)
Sequence (P00747 97-580 limits assumed): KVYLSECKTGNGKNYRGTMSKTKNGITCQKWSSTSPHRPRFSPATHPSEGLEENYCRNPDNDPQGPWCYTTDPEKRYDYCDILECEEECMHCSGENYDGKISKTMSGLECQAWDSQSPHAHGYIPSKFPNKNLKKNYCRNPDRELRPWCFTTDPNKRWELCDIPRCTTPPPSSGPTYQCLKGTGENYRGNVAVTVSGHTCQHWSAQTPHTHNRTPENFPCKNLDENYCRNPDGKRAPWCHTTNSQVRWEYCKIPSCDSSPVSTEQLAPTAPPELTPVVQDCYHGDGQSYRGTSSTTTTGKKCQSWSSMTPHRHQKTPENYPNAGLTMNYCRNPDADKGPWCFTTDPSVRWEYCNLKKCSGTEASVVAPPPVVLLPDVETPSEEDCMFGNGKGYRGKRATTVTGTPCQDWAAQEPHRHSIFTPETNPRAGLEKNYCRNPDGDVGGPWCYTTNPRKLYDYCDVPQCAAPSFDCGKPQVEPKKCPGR
Sequence (P00747 581-810 limits assumed): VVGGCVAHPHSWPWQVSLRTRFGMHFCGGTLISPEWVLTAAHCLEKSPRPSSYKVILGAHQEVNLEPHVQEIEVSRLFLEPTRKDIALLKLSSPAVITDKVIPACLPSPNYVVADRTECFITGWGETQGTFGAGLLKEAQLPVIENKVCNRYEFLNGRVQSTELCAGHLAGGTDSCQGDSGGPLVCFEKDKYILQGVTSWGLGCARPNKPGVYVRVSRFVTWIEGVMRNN
parameter: IC50

Indicate its recorded IC50; the compound in question is O=C(O)C[C@@H]1CC[C@H](NC(=O)Cc2cccs2)B(O)O1 [VABORBACTAM]
> 1000 µM

---

assay: Half life in human at 1 g administered as 3 hrs of infusion; format: ADME, organism-based; details: in vivo, iv
parameter: half-life (h)
Give just the number in h; leave the unit off.

Respond only with half-life recorded for O=C(O)C[C@@H]1CC[C@H](NC(=O)Cc2cccs2)B(O)O1 [VABORBACTAM]
1.23

---

system: Homo sapiens; assay: Clearance in human at 1 g administered as 3 hrs of infusion; format: ADME, organism-based; details: in vivo, iv
parameter: clearance (L/h)
Numeric answer only, unit L/h assumed.

Find the measured clearance of `O=C(O)C[C@@H]1CC[C@H](NC(=O)Cc2cccs2)B(O)O1` and report it.
12.8

---

experiment: Volume of distribution in rat at 100 mg/kg, iv administered as 0.5 hrs infusion by HPLC-MS method; format: ADME, organism-based; conditions: in vivo
parameter: Vd (L/kg)
Just the number please, in L/kg, no unit attached.

Kindly indicate its recorded Vd. Item: O=C(O)C[C@@H]1CC[C@H](NC(=O)Cc2cccs2)B(O)O1 [VABORBACTAM]
0.97

---

test: Half life in rat at 100 mg/kg, iv administered as 0.5 hrs infusion by HPLC-MS method; type: ADME, organism-based; conditions: in vivo
parameter: half-life (min)
# output: bare number, implied unit min

Answer with reported half-life of `O=C(O)C[C@@H]1CC[C@H](NC(=O)Cc2cccs2)B(O)O1`
25.2
